Assay: ACI-91 and ACI-92 levels in plasma, CSF and brain homogenates of transgenic mice
Assay type: in vivo, mouse
Details: hAPP-PS1 double-transgenic, mouse, brain homogenate, oral, 4 months old double transgenic mice; 100 mg/kg ACI-91 or 50 mg/kg ACI-92, 33 days; read-out: concentration in brain as % of plasma concentration
quantity_kind: Kp at 33 days

Identify measured Kp at 33 days corresponding to O=C1Nc2cccnc2Nc2ccccc21 [AC-92, LS-75]
~0.05

* * *

Assay: in vivo
Details: male, Lewis, rat, ip, 50 mg/kg
quantity_kind: Kp

Identify measured Kp corresponding to O=C1Nc2cccnc2Nc2ccccc21 [AC-92, LS-75]
~0.25
